- test_system: Apelin receptor (Homo sapiens)
- protocol_details: Agonist activity at APJ receptor in HEK293 cells assessed as inhibition of forskolin-induced cAMP level incubated for 5 mins prior to forskolin challenge measured after 30 mins by TR-FRET assay
Residues, ends and D or L forms follow the SMILES beside them. *: point of attachment. Palmitoyl = CCCCCCCCCCCCCCCC(=O)*
attribute_measured: EC50

What value of measured EC50 is listed for CCCCCCCCCCCCCCCC(=O)N[C@H](C(=O)N[C@H](C(=O)N[C@@H](CC(C)C)C(=O)N1CCC[C@H]1C(=O)N[C@@H](C)C(=O)N[C@@H](Cc1c[nH]c2ccccc12)C(=O)N[C@@H](C)C(=O)N[C@H](C(=O)N[C@@H](Cc1ccc(O)cc1)C(=O)N[C@H](C(=O)N[C@@H](Cc1ccc(O)cc1)C(=O)N[C@@H](CCCNC(=N)N)C(N)=O)[C@@H](C)O)[C@@H](C)O)[C@@H](C)O)C(C)C (Palmitoyl-VTLPAWATYTYR-NH2) ?
> 30 µM

Param item = CCCCCCCCCCCCCCCC(=O)N[C@H](C(=O)N[C@H](C(=O)N[C@@H](CC(C)C)C(=O)N1CCC[C@H]1C(=O)N[C@@H](CC(C)C)C(=O)N[C@@H](Cc1c[nH]c2ccccc12)C(=O)N[C@@H](C)C(=O)N[C@@H](C)C(=O)N[C@@H](Cc1ccc(O)cc1)C(=O)N[C@H](C(=O)N[C@@H](Cc1ccc(O)cc1)C(=O)N[C@@H](CCCNC(=N)N)C(N)=O)[C@@H](C)O)[C@@H](C)O)C(C)C (Palmitoyl-VTLPLWAAYTYR-NH2) ; retrieve measured EC50.
0.0215 µM

Which EC50 is reported for this molecule? CCCCCCCCCCCCCCCC(=O)N[C@H](C(=O)N[C@H](C(=O)N[C@@H](CC(C)C)C(=O)N1CCC[C@H]1C(=O)N[C@@H](CC(C)C)C(=O)N[C@@H](Cc1c[nH]c2ccccc12)C(=O)N[C@@H](C)C(=O)N[C@H](C(=O)N[C@@H](Cc1ccc(O)cc1)C(=O)N[C@@H](C)C(=O)N[C@@H](Cc1ccc(O)cc1)C(=O)N[C@@H](CCCNC(=N)N)C(N)=O)[C@@H](C)O)[C@@H](C)O)C(C)C (Palmitoyl-VTLPLWATYAYR-NH2)
> 30 µM

---

- test_system: Apelin receptor (Homo sapiens)
- Sequence (whole entry): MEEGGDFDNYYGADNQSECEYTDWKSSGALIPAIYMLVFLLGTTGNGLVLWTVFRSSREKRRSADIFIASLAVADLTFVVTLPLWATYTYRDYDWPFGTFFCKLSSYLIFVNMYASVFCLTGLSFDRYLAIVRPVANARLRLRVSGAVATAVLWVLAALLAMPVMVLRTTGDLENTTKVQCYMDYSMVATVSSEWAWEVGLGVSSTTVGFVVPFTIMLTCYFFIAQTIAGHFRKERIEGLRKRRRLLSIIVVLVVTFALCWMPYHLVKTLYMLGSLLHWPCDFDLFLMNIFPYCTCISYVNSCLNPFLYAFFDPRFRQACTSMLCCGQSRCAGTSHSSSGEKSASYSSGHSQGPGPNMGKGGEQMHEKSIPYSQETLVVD
- protocol_details: Agonist activity at APJ receptor in HEK293 cells assessed as inhibition of forskolin-induced cAMP level incubated for 5 mins prior to forskolin challenge measured after 30 mins by TR-FRET assay relative to [pyr1]-apelin-13
- Assay type: functional, cell-based
Residues, ends and D or L forms follow the SMILES beside them. *: point of attachment. Palmitoyl = CCCCCCCCCCCCCCCC(=O)*
attribute_measured: %max (%)
The response must be a number in % with no trailing unit.

For Apelin receptor (Homo sapiens), provide %max of CCCCCCCCCCCCCCCC(=O)N[C@H](C(=O)N[C@H](C(=O)N[C@@H](CC(C)C)C(=O)N1CCC[C@H]1C(=O)N[C@@H](CC(C)C)C(=O)N[C@@H](Cc1c[nH]c2ccccc12)C(=O)N[C@@H](C)C(=O)N[C@H](C(=O)N[C@@H](C)C(=O)N[C@H](C(=O)N[C@@H](Cc1ccc(O)cc1)C(=O)N[C@@H](CCCNC(=N)N)C(N)=O)[C@@H](C)O)[C@@H](C)O)[C@@H](C)O)C(C)C (Palmitoyl-VTLPLWATATYR-NH2) please.
84.3

Notebook entry, Apelin receptor (Homo sapiens) assay: %max of CCCCCCCCCCCCCCCC(=O)N[C@H](C(=O)N[C@H](C(=O)N[C@@H](CC(C)C)C(=O)N1CCC[C@H]1C(=O)N[C@@H](CC(C)C)C(=O)N[C@@H](Cc1c[nH]c2ccccc12)C(=O)N[C@@H](C)C(=O)N[C@@H](C)C(=O)N[C@@H](Cc1ccc(O)cc1)C(=O)N[C@H](C(=O)N[C@@H](Cc1ccc(O)cc1)C(=O)N[C@@H](CCCNC(=N)N)C(N)=O)[C@@H](C)O)[C@@H](C)O)C(C)C (Palmitoyl-VTLPLWAAYTYR-NH2) = ?
53.6

%max of CCCCCCCCCCCCCCCC(=O)N[C@H](C(=O)N[C@H](C(=O)N[C@@H](CC(C)C)C(=O)N1CCC[C@H]1C(=O)N[C@@H](CC(C)C)C(=O)N[C@@H](Cc1c[nH]c2ccccc12)C(=O)N[C@@H](C)C(=O)N[C@H](C(=O)N[C@@H](Cc1ccc(O)cc1)C(=O)N[C@H](C(=O)N[C@@H](C)C(=O)N[C@@H](CCCNC(=N)N)C(N)=O)[C@@H](C)O)[C@@H](C)O)[C@@H](C)O)C(C)C (Palmitoyl-VTLPLWATYTAR-NH2) on Apelin receptor (Homo sapiens)?
62.5

Form field - read-out: %max; system: Apelin receptor (Homo sapiens); submitted item: CCCCCCCCCCCCCCCC(=O)N[C@H](C(=O)N[C@@H](C)C(=O)N[C@@H](CC(C)C)C(=O)N1CCC[C@H]1C(=O)N[C@@H](CC(C)C)C(=O)N[C@@H](Cc1c[nH]c2ccccc12)C(=O)N[C@@H](C)C(=O)N[C@H](C(=O)N[C@@H](Cc1ccc(O)cc1)C(=O)N[C@H](C(=O)N[C@@H](Cc1ccc(O)cc1)C(=O)N[C@@H](CCCNC(=N)N)C(N)=O)[C@@H](C)O)[C@@H](C)O)C(C)C (Palmitoyl-VALPLWATYTYR-NH2)
45
